target: MK-2 (Homo sapiens); experiment: Determination of MK-2 IC50 (anion exchange resin capture assay, HSP-peptide phosphorylation); format: biochemical; conditions: read-out: MK-2 Avg. IC50
Structures can show the parent of a compound that is named as a salt.
Quick reference for pIC50 among some molecules
Give only the number. pIC50 is defined as minus log10 of concentration in molar units.

> print(dat)
                                   molecule  result.value
1  CCOC(=O)c1cc(-c2ccnc(-c3cnc4ccccc4c3)c2)nn1CCCN [Example 139, dihydrochloride]          4.41
2  CN(C)Cc1cccc(-c2cc(-c3cc4n(n3)CCNC4=O)ccn2)c1 [Example 128, trifluoroacetate]          4.81

Problem: Return pIC50 for the following molecule: O=C1NCCCn2nc(-c3ccnc(-n4cccn4)c3)cc21 [Example 130, hydrochloride]
Result: 4.79

Problem: Determine its reported pIC50: CCOC(=O)c1cc(-c2ccnc(-c3cccc([N+](=O)[O-])c3)c2)nn1CCCN [Example 137, dihydrochloride]
Result: 4.50

Problem: Annotate the molecule O=C1NCCn2nc(-c3ccnc(-c4ccc(Cl)c(Cl)c4)c3)cc21 [Example 144, trifluoroacetate] with its measured pIC50.
Result: 4.18

Problem: Identify measured pIC50 associated with O=C1NCCn2nc(-c3ccnc(-c4ccc(OC(F)(F)F)cc4)c3)cc21 [Example 149, trifluoroacetate]
Result: 3.88

Problem: Tell me pIC50 reported for CN(C)c1cc(-c2cc3n(n2)CCNC3=O)ccn1 [Example 138, trifluoroacetate]
Result: 4.43

----------
Parameter: pIC50. Scope: all listed entries.
molecular target: MK-2 (Homo sapiens, UniProt P49137); test: Determination of MK-2 IC50 (anion exchange resin capture assay, HSP-peptide phosphorylation); format: biochemical; settings: read-out: MK-2 Avg. IC50
Sequence (P49137 whole entry, species assumed): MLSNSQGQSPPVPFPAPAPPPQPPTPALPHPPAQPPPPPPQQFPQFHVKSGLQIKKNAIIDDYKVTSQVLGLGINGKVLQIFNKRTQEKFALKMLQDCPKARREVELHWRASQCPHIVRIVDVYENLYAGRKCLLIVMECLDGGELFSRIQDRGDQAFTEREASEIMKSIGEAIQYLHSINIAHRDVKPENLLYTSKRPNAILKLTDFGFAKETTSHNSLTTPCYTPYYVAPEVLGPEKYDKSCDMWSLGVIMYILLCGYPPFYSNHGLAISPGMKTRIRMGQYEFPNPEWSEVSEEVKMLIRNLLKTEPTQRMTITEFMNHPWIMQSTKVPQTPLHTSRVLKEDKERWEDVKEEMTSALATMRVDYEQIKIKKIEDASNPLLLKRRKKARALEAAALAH
Counter-ions that a name gives are not always drawn.
Just the number, please; pIC50 means minus log10 of the concentration in mol/L.

Completed entries (count: 6):
> print(dat)
                                   molecule                        tested.system  result.value
1           N#Cc1cc(-c2cc3n(n2)CCNC3=O)ccn1  MK-2 (Homo sapiens, UniProt P49137)          4.86
2  O=C1NCCCn2nc(-c3ccnc(-c4ccc(OC(F)(F)F)cc4)c3)cc21  MK-2 (Homo sapiens, UniProt P49137)          3.91
3  CCOC(=O)c1cc(-c2ccncc2)nn1CCCN [Example 143, hydrochloride]  MK-2 (Homo sapiens, UniProt P49137)          4.22
4  NCCCn1nc(-c2cccc(O)c2)cc1C(=O)O [Example 150, trifluoroacetate]  MK-2 (Homo sapiens, UniProt P49137)          3.82
5  O=C1NCCn2nc(-c3ccnc(-c4cccc(OCc5ccccc5)c4)c3)cc21  MK-2 (Homo sapiens, UniProt P49137)          4.81
6  O=C1NCCCn2nc(-c3ccnc(-n4cncn4)c3)cc21 [Example 135, hydrochloride]  MK-2 (Homo sapiens, UniProt P49137)          4.55

Problem: Report pIC50 under test system MK-2 (Homo sapiens, UniProt P49137) for COc1ccc(-c2cc(C(=O)O)n(CCCNC(=O)OC(C)(C)C)n2)cc1 .
Result: 3.81
